# Tested on: EKVX
# protocol.details: NCI tumour cell line growth inhibition, 48 h
Active and inactive are the calls of the source. Cut-off read from the data, not from the text of the source: active = GI50 up to about 1.1 µM and inactive = higher.
GI50 listing for selected molecules.

Solved cases below.
molecule	value.measured
CCc1c(OC(C)=O)c2c(NC3OC(COC(C)=O)C(OC(C)=O)C(OC(C)=O)C3OC(C)=O)nc(SC)nc2oc1=O (configuration not stated)	> 100 µM (inactive)
CC1CC(NC2CCCCC2)=Nc2ccccc2N1Cc1ccccc1 (configuration not stated)	8.22 µM (inactive)
CC1CC(C)C(C(O)CC2CC(=O)N(c3ccccc3)C(=O)C2)C(O)C1 (configuration not stated)	> 100 µM (inactive)
COc1ccc(-c2c(C#N)c(S)n(NS(=O)(=O)c3ccc(C)cc3)c(=O)c2C#N)cc1	25.8 µM (inactive)
CC1(C)OC(CCC#N)CN1C(=O)OCc1ccccc1 (configuration not stated)	> 100 µM (inactive)

What the record says about Cc1cccc(C(C)(C)C)c1NC(=O)/C(Cc1nc2ccc([N+](=O)[O-])cc2nc1O)=N\NC(=O)C[N+](C)(C)C : GI50 is > 100 µM (inactive)

CC(c1ccc2c(c1)CCC1C2CC2OC23CC=CC(=O)[C@]13C)C1C[C@]2(C)O[C@]2(C)[C@H](O)O1 (some centres not stated) has a reported GI50 of 5.48 µM (inactive)
